In this section we review reported pIC50 values for a set of compounds.
# target entity: UniProt:P30291
# Sequence (P30291 whole entry, species assumed): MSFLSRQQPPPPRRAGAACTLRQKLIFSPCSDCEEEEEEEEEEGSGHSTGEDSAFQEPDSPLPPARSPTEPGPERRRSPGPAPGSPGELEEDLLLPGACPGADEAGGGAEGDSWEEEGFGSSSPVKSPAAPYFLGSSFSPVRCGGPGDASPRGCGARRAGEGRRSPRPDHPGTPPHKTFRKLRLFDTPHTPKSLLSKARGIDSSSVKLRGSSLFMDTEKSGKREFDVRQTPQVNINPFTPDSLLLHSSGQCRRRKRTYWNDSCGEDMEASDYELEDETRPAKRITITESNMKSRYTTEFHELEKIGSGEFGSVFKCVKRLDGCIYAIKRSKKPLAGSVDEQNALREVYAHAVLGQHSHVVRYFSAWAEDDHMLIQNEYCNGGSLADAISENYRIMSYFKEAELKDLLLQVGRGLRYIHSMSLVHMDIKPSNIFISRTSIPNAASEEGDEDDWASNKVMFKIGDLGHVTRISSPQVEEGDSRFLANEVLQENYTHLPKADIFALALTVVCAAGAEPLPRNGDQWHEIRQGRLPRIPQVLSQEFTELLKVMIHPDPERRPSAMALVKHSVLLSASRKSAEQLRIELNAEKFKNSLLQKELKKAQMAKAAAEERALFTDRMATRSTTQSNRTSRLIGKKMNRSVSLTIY
# assay info: WEE1 ADP-Glo Assay
# Type: biochemical
# condition label: luminescence
pIC50: −log10 of the molar value.

Guide cases for pIC50, answers given:
compound	readout value
Cc1ccc(O)c(C)c1-n1nc(-c2nccs2)c(C(N)=O)c1N [Example 2]	6.30 to 7.30
Cc1ccc(O)c(C)c1-n1nc(-c2ccn(C(F)F)n2)c(C(N)=O)c1N	6.30 to 7.30

// Cc1ccc(O)c(C)c1-n1nc(-c2nccs2)c(C(N)=O)c1N [Example 1] : pIC50 value = 6.30 to 7.30
